system_name: CyclinE1/CDK2 (Homo sapiens)
Construct: purchased Eurofins, discovery 14-475
experiment_summary: Fluorescence Polarization (FP) competitive binding assay, Cyclin E1/Cdk2;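 also: readings taken after two-hour equilibration at room temperature in HEPES buffer with NaCl, DTT, NP-40 and BSA, IC50 fitted from eight-concentration serial dilution series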
condition_parameters: 10 nM Cyclin E1/Cdk2, 2 nM FAM probe; average of 2-3 independent experiments; read-out: Cyclin E FP IC50
*1 amine or outer side, *2 acyl side, *3 side chain or, on linkers, in order; H or OH if unused. Where a SMILES comes first, the peptide text is derived from it. Bridges are numbered along the chain shown (N, C = ends). [ ]: non-standard residue; d: D form. The star is where a group is joined. X181 = CN([C@@H](Cc1cc(Cl)ccc1C1=CCN(C(=O)C2CC2)CC1)C(=O)[*:2])[*:1]; X37 = CN1CCN(c2ccc(-c3ccc(F)cc3C[C@@H](C(=O)[*:2])N(C)[*:1])cn2)CC1; X200 = CN([C@@H](Cc1cc(F)ccc1C1CCN(C(=O)C2CC2)CC1)C(=O)[*:2])[*:1]; X26 = CN([C@@H](Cc1cc(F)ccc1-c1cnn(C2CC2)c1)C(=O)[*:2])[*:1]; NMehhhLys(Me) = CN([C@@H](CCCCCCCN(C)[*:3])C(=O)[*:2])[*:1]; X176 = CN([C@@H](Cc1cc(F)ccc1-c1cccnc1)C(=O)[*:2])[*:1]; NMe(hhhLys) = CN([C@@H](CCCCCCCN[*:3])C(=O)[*:2])[*:1]; NMe3Pal(2-OMe,5-Cl) = CN[C@@H](Cc1cc(Cl)cnc1OC)C(=O)O; Oxane2carbonyl(2R-CF3) = O=C([C@@]1(C(F)(F)F)CCCCO1)*; cBuCO(3,3-F2-1-CF3) = O=C(C1(C(F)(F)F)CC(F)(F)C1)*; Pro(trans-4-F) = O=C(O)[C@@H]1C[C@@H](F)CN1; Gly(cPr) = N[C@H](C(=O)O)C1CC1
# key: entry, value: pIC50
By convention, pIC50 is the negative base-10 log of a molar concentration.

Look over these answered cases.
[
  {
    "molecule": "CC(C)C[C@@H]1NC(=O)[C@@H](N(C)C(=O)[C@@H](NC(=O)[C@@H]2C[C@@H](F)CN2C(=O)C2(C(F)(F)F)CC(F)(F)C2)C2CC2)CCCCCCCNC(=O)[C@H](Cc2cc(F)ccc2-c2cccnc2)N(C)C1=O [Example 280] ({cBuCO(3,3-F2-1-CF3)}-[Pro(trans-4-F)][Gly(cPr)][NMe(hhhLys)]L[X176]; lactam 3-C)",
    "measured_property": "pIC50",
    "result_value": 6.49
  },
  {
    "molecule": "CC(C)C[C@@H]1NC(=O)[C@@H](N(C)C(=O)[C@@H](NC(=O)[C@@H]2C[C@@H](F)CN2C(=O)C2(C(F)(F)F)CC(F)(F)C2)C2CC2)CCCCCCCN(C)C(=O)[C@H](Cc2cc(F)ccc2-c2ccc(N3CCN(C)CC3)nc2)N(C)C1=O [Example 391] ({cBuCO(3,3-F2-1-CF3)}-[Pro(trans-4-F)][Gly(cPr)][NMehhhLys(Me)]L[X37]; lactam 3-C)",
    "measured_property": "pIC50",
    "result_value": 6.21
  },
  {
    "molecule": "COc1ncc(Cl)cc1C[C@H]1C(=O)NCCCCCCC[C@H](N(C)C(=O)[C@@H](NC(=O)[C@@H]2C[C@@H](F)CN2C(=O)[C@@]2(C(F)(F)F)CCCCO2)C2CC2)C(=O)N[C@@H](CC(C)C)C(=O)N1C [Example 274] ({Oxane2carbonyl(2R-CF3)}-[Pro(trans-4-F)][Gly(cPr)][NMe(hhhLys)]L[NMe3Pal(2-OMe,5-Cl)]; lactam 3-C)",
    "measured_property": "pIC50",
    "result_value": 7.00
  },
  {
    "molecule": "CC(C)C[C@@H]1NC(=O)[C@@H](N(C)C(=O)[C@@H](NC(=O)[C@@H]2C[C@@H](F)CN2C(=O)C2(C(F)(F)F)CC(F)(F)C2)C2CC2)CCCCCCCN(C)C(=O)[C@H](Cc2cc(F)ccc2C2CCN(C(=O)C3CC3)CC2)N(C)C1=O [Example 101] ({cBuCO(3,3-F2-1-CF3)}-[Pro(trans-4-F)][Gly(cPr)][NMehhhLys(Me)]L[X200]; lactam 3-C)",
    "measured_property": "pIC50",
    "result_value": 6.33
  },
  {
    "molecule": "CC(C)C[C@@H]1NC(=O)[C@@H](N(C)C(=O)[C@@H](NC(=O)[C@@H]2C[C@@H](F)CN2C(=O)C2(C(F)(F)F)CCC2)C2CC2)CC=CCCCCNC(=O)[C@H](Cc2cc(Cl)ccc2-c2cnn(CCO)c2)N(C)C1=O [Example 33]",
    "measured_property": "pIC50",
    "result_value": 6.57
  }
]

Briefly, pIC50 measured for CC(C)C[C@@H]1NC(=O)[C@@H](N(C)C(=O)[C@@H](NC(=O)[C@@H]2C[C@@H](F)CN2C(=O)C2(C(F)(F)F)CCC2)C2CC2)CC=CCCCCNC(=O)[C@H](Cc2cc(Cl)cnc2OC2CC2)N(C)C1=O (single isomer, unassigned) [Example 107-P2] : 6.74

Briefly, pIC50 measured for CC(C)C[C@@H]1NC(=O)[C@@H](N(C)C(=O)[C@@H](NC(=O)[C@@H]2C[C@@H](F)CN2C(=O)C2(C(F)(F)F)CC(F)(F)C2)C2CC2)CCCCCCCNC(=O)[C@H](Cc2cc(Cl)ccc2C2=CCN(C(=O)C3CC3)CC2)N(C)C1=O [Example 97] ({cBuCO(3,3-F2-1-CF3)}-[Pro(trans-4-F)][Gly(cPr)][NMe(hhhLys)]L[X181]; lactam 3-C) : 5.84

Briefly, pIC50 measured for CC(C)C[C@@H]1NC(=O)[C@@H](N(C)C(=O)[C@@H](NC(=O)[C@@H]2C[C@@H](F)CN2C(=O)C2(C(F)(F)F)CC(F)(F)C2)C2CC2)CCCCCCCNC(=O)[C@H](Cc2cc(F)ccc2-c2cnn(C3CC3)c2)N(C)C1=O [Example 213] ({cBuCO(3,3-F2-1-CF3)}-[Pro(trans-4-F)][Gly(cPr)][NMe(hhhLys)]L[X26]; lactam 3-C) : 6.72
